# Target entity: T1, biotinylated APRIL (Homo sapiens (Human), UniProt O75888 105-250, biotinylated using NHS-biotin at a molar ratio of 20:1 biotin:APRIL)
# T1 construct: also called bio-APRIL
# T1 sequence: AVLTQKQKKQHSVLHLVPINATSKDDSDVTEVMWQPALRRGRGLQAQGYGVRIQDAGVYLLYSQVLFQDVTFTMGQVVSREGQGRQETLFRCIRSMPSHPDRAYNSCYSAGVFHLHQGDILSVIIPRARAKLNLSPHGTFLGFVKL
# Assay info: scFv inhibition of bio-APRIL (5 ng/ml) binding to coated BCMA fusion protein, streptavidin-DELFIA
IC50 reference
Value type: IC50

[[record]]
binder = "A027A11 (scFv) scFv: QVQLQQSGAEVKKPGSSVKVSCKASGGTFSTYAITWVRQAPGQGLEWMGDIIPVFGIPNYAQMFQDRVTITADESTSTAYLELNSLGAEDTAVYYCARGSQAFEIWGKGTTVTVSSGGGGSGGGGSGGGGSQSVLTQPASVSGSPGQSITISCTGTSSDVGGYNYVSWYQQHPGKAPKLMIYEGSKRPSGVSNRFSGSKSGNTASLTISGLQAEDEADYYCSSYTTRSTRVFGGGTKLTVLG"
observed_value = "2.7 nM"

[[record]]
binder = "A019C11 (scFv) scFv: EVQLVQSGAEVKKPGASVKVSCKTSGYTFTDNYMHWVRQAPGQGLEWMGWISPNSSTTLYAQKFRGRVTLTRDTSVSTAYMELSGLDSDDTALYFCARGGRLAGSTVFTPAFEYWGRGTMVTVSSGGGGSGGGGSGGGGSAQAVLTQPSSVSEAPRQRVTISCSGSSSNIGNNAVKWYQQLPGKAPKLLIYYDDLLPSGVSDRFSGSKSGTSASLAISGLQSEDEADYYCAAWDDSLNGYVFGTGTKVTVLG"
observed_value = "4.3 nM"

[[record]]
binder = "A034H05 (scFv) scFv: EVQLVQSGAEVKKPGSSVKVSCKVSGGSFPNYAINWVRQAPGQGLEWMGSLVPVFLTPNYAERFQDRVTITADESTSTAYMELRSLRSDDTAVFYCARSGGDGYRDYGMDLWGRGTLVTVSSGGGGSGGGGSGGGGSAQSVLTQPPSASGTPGQRVTISCSGSSSNIGRNTVNWFQQLPGTAPKLLIYSSNQRPSGVPDRFAGSKSGTSASLAISGLQSEDEADYYCAAWDDSLNGLVFGGGTKLTVLG"
observed_value = "10 nM"

